# assay_method_text: chemical genetic growth profiling, strain panel (AID 1159580);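 note: tested at 20 µM; growth read once vehicle control cultures reached saturation at 30 °C; 1 = growth at the plate median or of vehicle wells; lower values mean less growth of the strain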
# assay_setup: S. cerevisiae deletion strains, growth OD, locus YBL061C, strain skt5, stronger effect = lower value
In all, about 5,500 compounds went through this assay and about 2,000 (36%) were called active. Roughly 18% stayed inconclusive and do not appear here. The list shows a part of the results.
Kindly supply the reported normalized growth values for the records listed here.
One number for each entry.

Examples from the recorded data:
**Q:** // normalized growth lookup, key: O=c1cc(-c2ccccc2)oc2cc(O)c(O)cc12
**A:** 0.946

**Q:** // normalized growth lookup, key: CCCCS(=N)(=O)CCC(N)C(=O)O (centres undefined)
**A:** 0.999

**Q:** // normalized growth lookup, key: O=c1cc(-c2ccccc2)oc2c(O)c(O)ccc12
**A:** 0.995

**Q:** // normalized growth lookup, key: COc1ccc(C(=O)N2CCCC2=O)cc1
**A:** 0.962

**Q:** // normalized growth lookup, key: O=c1cc(-c2cc(O)c(O)c(O)c2)oc2cc(O)cc(O)c12
**A:** 0.942

**Q:** // normalized growth lookup, key: Cc1cc(=O)oc2c(O)c(O)ccc12
**A:** 0.966

I have 3 molecules here; please give me normalized growth for each one.
1. C=C1C2=CC(=O)O[C@@H](c3ccoc3)[C@]2(C)CCC1[C@@]1(C)C=CC(=O)C(C)(C)[C@@H]1CC(=O)OC (some centres undefined)
2. CCCC(CCC)C(=O)O
3. C=C1C2CCC3(C)C(c4ccoc4)OC(=O)CC13OC1CC(OC(C)=O)C(C)(C)C(CC(=O)OC)C12C (centres undefined)

**A:**
0.999
1
0.993
